# credit: PubChem BioAssay (NCATS)

# METHOD NOTES: BET inhibitor-based combinations targeting novel dependencies in MECOM-rearranged (r) AML: AML-194 cell line (AID 2202237; further: nearly all actives have a fitted effect of over 40% in size)
# TEST CONDITIONS: AML-194 (MECOM-r AML) viability, CellTiter-Glo, 48 h; series mostly up to 46 µM
# Protocol: Ecotropic viral insertion site 1 (EVI1) is located on chromosome 3q26.2 as part of the MECOM (MDS and EVI1 complex) locus. […] A collection of 2480 mechanistically annotated dugs (MIPE v5.0) was used to screen four 3q26.2 rearranged AML cell lines and three non-3q26.2 rearranged AML cell lines. […] Cell viability was determined by luminescence based, Cell Titer Glo assay (Promega). […] Luminescence readings were taken using a Viewlux (PerkinElmer) with a 2 s exposure time per plate. […]
Inconclusive results are not listed. Activity calls are given as the source filed them. The call rests on the fitted dose curve; in most records, active means well fitted inhibition curve with a large enough effect; inconclusive means small, poorly fitted or top-dose-only effect; inactive means flat fitted curve, though single readings scatter.
Write down the outcome that applies. Available outcomes: y = active, n = inactive

Asked: GET /call?item= COc1ncnc(NS(=O)(=O)c2ccc(N)cc2)c1OC returns the recorded outcome of this test.
Given back: n

Asked: GET /call?item= Cc1[nH]c(=O)c(C#N)cc1-c1ccc2nccn2c1 returns the recorded outcome of this test.
Given back: n

Asked: GET /call?item= Cc1ccc(CN2CCNCC2)cc1NC(=O)CNc1ccc(F)c(F)c1 returns the recorded outcome of this test.
Given back: n

Asked: GET /call?item= O=C(c1ccc(F)cc1)N1CCC[C@H](c2nc(-c3ccc(F)cc3)no2)C1 returns the recorded outcome of this test.
Given back: n

Asked: GET /call?item= CNc1nc(C)nc(N[C@H]2CCC[C@@H](C(=O)NCc3ccc(C#N)cc3C(F)(F)F)C2)n1 returns the recorded outcome of this test.
Given back: n

Asked: GET /call?item= CC[C@H](C)n1cc(C)c2c(C(=O)NCc3c(C)cc(C)[nH]c3=O)cc(-c3ccc(N4CCNCC4)nc3)cc21 returns the recorded outcome of this test.
Given back: n

Asked: GET /call?item= CCN(CC)CCOc1ccc(Cc2ccccc2)cc1 returns the recorded outcome of this test.
Given back: n

Asked: GET /call?item= Clc1ccc2c(N3CCN(CCCN4CCN(c5ccnc6cc(Cl)ccc56)CC4)CC3)ccnc2c1 returns the recorded outcome of this test.
Given back: n

Asked: GET /call?item= Cc1nc(C(=O)NCC(=O)O)c(O)c2ccc(Oc3ccccc3)cc12 returns the recorded outcome of this test.
Given back: n

Asked: GET /call?item= Cc1cc(CS(=O)(=O)c2ccccc2)cc(OCc2ccc(CN3CCC[C@@H]3CO)cc2)c1 returns the recorded outcome of this test.
Given back: y

* * *

Please respond with reported activation for every item in the list.
# TESTED SYSTEM: Cellular tumor antigen p53 (Homo sapiens) (UniProt P04637)
# Sequence (P04637 whole entry, looked up): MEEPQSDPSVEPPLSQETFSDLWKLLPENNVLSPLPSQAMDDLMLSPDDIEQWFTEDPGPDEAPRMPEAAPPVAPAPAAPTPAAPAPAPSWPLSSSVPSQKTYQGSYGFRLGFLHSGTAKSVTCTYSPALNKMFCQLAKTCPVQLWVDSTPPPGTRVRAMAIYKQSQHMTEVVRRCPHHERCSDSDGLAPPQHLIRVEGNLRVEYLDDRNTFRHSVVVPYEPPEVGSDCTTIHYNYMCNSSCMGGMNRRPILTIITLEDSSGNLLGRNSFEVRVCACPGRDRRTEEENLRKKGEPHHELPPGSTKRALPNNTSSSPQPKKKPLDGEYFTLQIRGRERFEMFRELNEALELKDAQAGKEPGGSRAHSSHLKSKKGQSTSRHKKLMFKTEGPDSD
# METHOD NOTES: Primary qHTS for small molecule compounds that upregulate eGFP-tagged delta133p53alpha (in N-terminal) cells. (AID 2060322);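 further: cells pre-induced with doxycycline then dosed without doxycycline; 0% = DMSO vehicle and 100% = reference activator; nearly all actives have a fitted effect of over 75% in size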
# TEST CONDITIONS: NCI-H358 eGFP-delta133p53alpha fluorescence, 24 h; stronger effect = higher value
Records with an inconclusive call do not appear.
The reply should be a number in %, with the unit left off.

Asked: For CC(=O)O[C@@H]1CC2C(C)(C)C(=O)C=C[C@]2(C)C2CC[C@]3(C)C(=CC(=O)[C@@H]3c3ccoc3)[C@@]21C (stereo not given in full) , what is its reported activation?
Given back: 1.53

Asked: For CCN(c1nc(N)c(C(=O)N=C(N)N)nc1Cl)C(C)C , what is its reported activation?
Given back: -41.7

Asked: For O=C(O)c1cc(=O)c2c(OCC(O)COc3cccc4oc(C(=O)O)cc(=O)c34)cccc2o1 , what is its reported activation?
Given back: 19.8

Asked: For COc1cccc2c1c(O)c(C(=O)N(C)c1ccc(C(F)(F)F)cc1)c(=O)n2C , what is its reported activation?
Given back: 10.1

Asked: For CCCCCCCCCCCCCCCC(=O)OC[C@@H](NC(=O)C(Cl)Cl)[C@H](O)c1ccc([N+](=O)[O-])cc1 , what is its reported activation?
Given back: 7.1

* * *

# METHOD NOTES: BET inhibitor-based combinations targeting novel dependencies in MECOM-rearranged (r) AML: MV-4-11 cell line (AID 2202233); further: nearly all actives have a fitted effect of over 45% in size; further: potency means the concentration at half of the fitted maximal effect
# TEST CONDITIONS: MV-4-11 AML viability, CellTiter-Glo luminescence, 48 h; series mostly up to 46 µM
Results filed as inconclusive are left out. Activity calls are given as the source filed them. The call rests on the fitted dose curve; in most records, active means well fitted inhibition curve with a large enough effect; inconclusive means small, poorly fitted or top-dose-only effect; inactive means no such curve, though single readings can be large or run the other way.
OUTCOME MEASURE: Potency

CCN(CCCOc1ccc2c(Nc3cc(CC(=O)Nc4cccc(F)c4)[nH]n3)ncnc2c1)CCOP(=O)(O)O ... 0.372 µM (active)
COc1cc2ncnc(-n3nc(-c4ccccn4)nc3N)c2cc1OC ... 1.48 µM (active)
CCCn1c(=O)c2[nH]c(-c3cnn(Cc4cccc(C(F)(F)F)c4)c3)nc2n(CC)c1=O ... inactive
CCOc1cc2c(c(F)c1OCC)C(=N)N(CC(=O)c1cc(N3CCOCC3)c(OC)c(C(C)(C)C)c1)C2 ... 8.33 µM (active)

Asked: For COc1cccc(-c2cc(=O)c3ccccc3o2)c1N , what is its reported Potency?
Given back: 20.9 µM (active)

* * *

# METHOD NOTES: BET inhibitor-based combinations targeting novel dependencies in MECOM-rearranged (r) AML: HNT-34 cell line (AID 2202234); further: nearly all actives have a fitted effect of over 35% in size; further: potency means the concentration at half of the fitted maximal effect
# TEST CONDITIONS: HNT-34 AML viability, CellTiter-Glo luminescence, 48 h; series mostly up to 46 µM
Results filed as inconclusive are left out. Active and inactive are the calls of the source. Calls come from the whole dose curve; as a rule, active = well fitted inhibition curve with a large enough effect; inconclusive = small, poorly fitted or top-dose-only effect; inactive = no such curve, though single readings can be large or run the other way.
OUTCOME MEASURE: Potency

Cc1cc(Nc2cc(N3CCN(C)CC3)nc(Sc3ccc(NC(=O)C4CC4)cc3)n2)n[nH]1 ... 0.235 µM (active)
Cc1cnc(C(=O)NCCc2ccc(S(=O)(=O)NC(=O)NC3CCCCC3)cc2)cn1 ... inactive
CCNC(=O)Nc1ncc(-c2cc(-c3c(C)cc(OC)cc3C)nc(-c3cnccn3)n2)s1 ... inactive
CC1(C)CN(C(=O)c2ccc(-c3cccc4nc(NC(=O)C5CC5)nn34)cc2)C1 ... 18.6 µM (active)
NCC1CCC(C(=O)O)CC1 (configuration not stated) ... inactive

# evaluate next
Asked: For COc1cc(N2CCC(O)CC2)ccc1Nc1cc(Nc2ccccc2S(=O)(=O)C(C)C)c2cc[nH]c2n1 , what is its reported Potency?
Given back: 18.6 µM (active)

* * *

# TESTED SYSTEM: Cellular tumor antigen p53 (Homo sapiens) (UniProt P04637)
# METHOD NOTES: Primary qHTS for small molecule compounds that upregulate eGFP-tagged delta133p53alpha (in N-terminal) cells. (AID 2060322);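 further: cells pre-induced with doxycycline then dosed without doxycycline; 0% = DMSO vehicle and 100% = reference activator; nearly all actives have a fitted effect of over 75% in size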
# TEST CONDITIONS: NCI-H358 eGFP-delta133p53alpha fluorescence, 24 h; stronger effect = higher value
Records with an inconclusive call do not appear.
OUTCOME MEASURE: activation (%)
The reply should be a number in %, with the unit left off.

Asked: For CC(=O)c1ccc(O[C@@H]2OC[C@@H](O)[C@H](O)[C@H]2O[C@]2(CO)O[C@H](CO)[C@@H](O)[C@@H]2O)c(O)c1 , what is its reported activation?
Given back: -9.92

Asked: For C#C[C@]1(OC(C)=O)CC[C@H]2[C@@H]3CCC4=C[C@@H](OC(C)=O)CC[C@@H]4[C@H]3CC[C@@]21C , what is its reported activation?
Given back: 6.33

Asked: For COc1cc2c(cc1OC)C(C(C(=O)N(CCc1ccc(OC)c(OC)c1OC)CCc1ccc(OC)c(OC)c1OC)c1ccccc1)=NCC2 (stereo unspecified) , what is its reported activation?
Given back: 3.95

Asked: For CC[C@]1(O)CC2CN(CCc3c([nH]c4ccccc34)[C@@](C(=O)OC)(c3cc4c(cc3OC)N(C)[C@H]3[C@@](O)(C(=O)OC)[C@H](OC(C)=O)[C@]5(CC)C=CCN6CC[C@]43[C@@H]65)C2)C1 (stereo partly specified) , what is its reported activation?
Given back: 4.91

Asked: For O=C(/C=C/c1ccc(O)c(O)c1)O[C@H]1[C@@H]2C=CO[C@@H](O[C@@H]3O[C@H](CO)[C@@H](O)[C@H](O)[C@H]3O)[C@@H]2[C@@]2(CO)O[C@@H]12 , what is its reported activation?
Given back: 22.3

Asked: For C[C@@H]1C[C@H](O)/C=C/[C@H](O)[C@@H](O)CC(=O)O1 , what is its reported activation?
Given back: -9.92

* * *

# METHOD NOTES: BET inhibitor-based combinations targeting novel dependencies in MECOM-rearranged (r) AML: UCSD-AML1 cell line (AID 2202235); further: nearly all actives have a fitted effect of over 40% in size
# TEST CONDITIONS: UCSD-AML1 AML cells viability, CellTiter-Glo, 48 h; series mostly up to 46 µM
Records with an inconclusive call do not appear. Calls of active or inactive are those of the source. Calls come from the whole dose curve; as a rule, active = well fitted inhibition curve with a large enough effect; inconclusive = small, poorly fitted or top-dose-only effect; inactive = no such curve, though single readings can be large or run the other way.
Write down the outcome that applies. Available outcomes: true (1) for active, false (0) for inactive

Asked: GET /call?item= O=C1CCc2cc(OCCCCc3nnnn3C3CCCCC3)ccc2N1 returns the recorded outcome of this test.
Given back: false (0)

Asked: GET /call?item= Cc1cnc(Nc2ccc(OCCN3CCCC3)cc2)nc1Nc1cccc(S(=O)(=O)NC(C)(C)C)c1 returns the recorded outcome of this test.
Given back: true (1)

Asked: GET /call?item= CNC(=O)CN1CCC(Oc2cc3c(Nc4cccc(Cl)c4F)ncnc3cc2OC)CC1 returns the recorded outcome of this test.
Given back: true (1)

Asked: GET /call?item= CCn1c(=O)c(-c2ccn[nH]2)cc2c(C)nc(N)nc21 returns the recorded outcome of this test.
Given back: true (1)

Asked: GET /call?item= CC(C)[C@@H](CS(=O)(=O)C(C)C)N1C(=O)[C@@](C)(CC(=O)O)C[C@H](c2cccc(Cl)c2)[C@H]1c1ccc(Cl)cc1 returns the recorded outcome of this test.
Given back: true (1)

Asked: GET /call?item= CCC(C)n1ncn(-c2ccc(N3CCN(c4ccc(OC[C@H]5CO[C@](Cn6cncn6)(c6ccc(Cl)cc6Cl)O5)cc4)CC3)cc2)c1=O (stereo not given in full) returns the recorded outcome of this test.
Given back: false (0)

Asked: GET /call?item= Cc1cc(-c2ncc(CC(=O)Nc3ccc(-c4cnccn4)cn3)cc2C)ccn1 returns the recorded outcome of this test.
Given back: true (1)

Asked: GET /call?item= O=C(C1CC1)N1CC[C@@H](Cc2n[nH]c(=O)n2-c2ccc(-c3ccc4occc4c3)cc2)C1 returns the recorded outcome of this test.
Given back: false (0)

Asked: GET /call?item= Cn1c(=O)c(-c2c(Cl)cccc2Cl)cc2cnc(Nc3cccc(C(=O)O)c3)nc21 returns the recorded outcome of this test.
Given back: false (0)

Asked: GET /call?item= COc1cc(N2CCN(C)CC2)ccc1Nc1nccc(-c2cn(C)c3cnccc23)n1 returns the recorded outcome of this test.
Given back: true (1)

Asked: GET /call?item= NS(=O)(=O)c1cc(Cl)c(Cl)c(S(N)(=O)=O)c1 returns the recorded outcome of this test.
Given back: false (0)

Asked: GET /call?item= CCn1c(C(=O)N(C2CC2)C2CC2)cc2c3c(ncn3C)c(Nc3cc(C)n(C)n3)nc21 returns the recorded outcome of this test.
Given back: true (1)

Asked: GET /call?item= O=C(/C=C/c1cccc(S(=O)(=O)Nc2ccccc2)c1)NO returns the recorded outcome of this test.
Given back: true (1)

Asked: GET /call?item= NS(=O)(=O)c1cc2c(cc1Cl)NC(C(Cl)Cl)NS2(=O)=O (stereo not given) returns the recorded outcome of this test.
Given back: false (0)

Asked: GET /call?item= Cn1cnc([N+](=O)[O-])c1Sc1ncnc2nc[nH]c12 returns the recorded outcome of this test.
Given back: false (0)

Asked: GET /call?item= Cn1ccc2cc3c(cc21)CCN3C(=O)Nc1cccnc1 returns the recorded outcome of this test.
Given back: false (0)

Asked: GET /call?item= COCCCN1CCC(NC(=O)c2cc(Cl)c(N)c3c2OCC3)CC1 returns the recorded outcome of this test.
Given back: false (0)

Asked: GET /call?item= c1ccc(-c2ccc(CNc3nc(-c4ccccn4)nnc3-c3ccccc3)cc2)cc1 returns the recorded outcome of this test.
Given back: true (1)

Asked: GET /call?item= CC1(C)Cc2c(sc(NC(=S)NC(=O)c3ccccc3)c2C(=O)O)CO1 returns the recorded outcome of this test.
Given back: false (0)

Asked: GET /call?item= N[C@@H](Cc1c[nH]c2ccc(O)cc12)C(=O)O returns the recorded outcome of this test.
Given back: false (0)
